Data origin: PubChem BioAssay AID1117264

# system_under_test: RNA-editing ligase 1, mitochondrial (Trypanosoma brucei brucei)
# assay_remarks: TbREL1 RNA ligase inhibitors, primary screen, biochemical, FRET fluorescence (AID 1117264);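 note: 0% = plate median of test wells and 100% = NSC42067 control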
# setup_conditions: TbREL1 RNA ligation, at 9.66 µM
Screen size: about 89,000 compounds; about 440 (0.49%) were called active.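 Rule for the calls: active = inhibition above the mean inhibition across all screened compounds plus 3 SD (cut at about 11% in these data); inactive = the rest.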 Shown is part of a subset that was picked to be rich in actives.
Outcome codes: YES for active, NO for inactive

> print(dat)
                                    compound                         system.under.test  answer.label
 1  CC1=C(C(=O)N(C)C)C(c2ccccc2OC(F)F)NC(=O)N1 (stereo unspecified)  RNA-editing ligase 1, mitochondrial (Trypanosoma brucei brucei)            NO
 2  Cc1ccc(S(=O)(=O)N(C)C)cc1NC(=O)COC(=O)c1c(C)noc1C  RNA-editing ligase 1, mitochondrial (Trypanosoma brucei brucei)            NO
 3  O=C(Nc1cccc(F)c1)NC1CCCc2ccccc21 (stereo unspecified)  RNA-editing ligase 1, mitochondrial (Trypanosoma brucei brucei)            NO
 4              O=C(Nc1cccc(F)c1)NC1CCCCCCC1  RNA-editing ligase 1, mitochondrial (Trypanosoma brucei brucei)           YES
 5  CC(=O)c1c(C)oc2ccc(NS(=O)(=O)c3ccc(C(=O)O)cc3)cc12  RNA-editing ligase 1, mitochondrial (Trypanosoma brucei brucei)            NO
 6           Cc1cc(C)cc(NC(=O)NC2CCCCCCC2)c1  RNA-editing ligase 1, mitochondrial (Trypanosoma brucei brucei)            NO
 7  O=C(CSc1nc2sc3c(c2c(=O)n1-c1ccccc1)CCCC3)NN=Cc1ccc(OCc2ccccc2)cc1  RNA-editing ligase 1, mitochondrial (Trypanosoma brucei brucei)            NO
 8  COc1ccc(N2CCN(CCNS(=O)(=O)c3ccc([N+](=O)[O-])cc3)CC2)cc1  RNA-editing ligase 1, mitochondrial (Trypanosoma brucei brucei)            NO
 9  O=C(NCc1ccccc1)[C@H]1CCCN1C(=O)[C@H]1CCCN1C(=O)N1CCOCC1  RNA-editing ligase 1, mitochondrial (Trypanosoma brucei brucei)            NO
10  COC(=O)c1cc(S(=O)(=O)N2CCN(C(=O)C3CCCO3)CC2)cn1C (stereo unspecified)  RNA-editing ligase 1, mitochondrial (Trypanosoma brucei brucei)            NO
11  COC(=O)c1ccc2c(c1)S(=O)(=O)NC2C (stereo unspecified)  RNA-editing ligase 1, mitochondrial (Trypanosoma brucei brucei)            NO

====

Reported values of inhibition for individual entries
# system_under_test: RNA-editing ligase 1, mitochondrial (Trypanosoma brucei brucei) (UniProt P86926)
# Sequence (P86926 whole entry, looked up): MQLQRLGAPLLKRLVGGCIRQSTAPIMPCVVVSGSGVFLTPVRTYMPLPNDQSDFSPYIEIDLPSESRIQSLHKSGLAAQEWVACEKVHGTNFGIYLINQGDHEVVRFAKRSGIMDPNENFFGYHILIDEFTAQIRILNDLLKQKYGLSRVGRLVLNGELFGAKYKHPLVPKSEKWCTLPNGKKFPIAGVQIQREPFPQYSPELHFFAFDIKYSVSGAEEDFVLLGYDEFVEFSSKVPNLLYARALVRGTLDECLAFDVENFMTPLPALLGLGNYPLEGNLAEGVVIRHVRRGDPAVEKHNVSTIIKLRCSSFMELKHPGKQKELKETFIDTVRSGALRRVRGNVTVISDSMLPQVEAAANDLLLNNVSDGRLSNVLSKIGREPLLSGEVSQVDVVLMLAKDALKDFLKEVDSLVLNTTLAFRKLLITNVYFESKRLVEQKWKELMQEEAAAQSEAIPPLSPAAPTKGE
# assay_remarks: TbREL1 RNA ligase inhibitors, primary screen, biochemical, FRET fluorescence (AID 1117264);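 note: 0% = plate median of test wells and 100% = NSC42067 control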
# setup_conditions: TbREL1 RNA ligation, at 9.66 µM, active compounds read high
The whole screen tested about 89,000 compounds, of which about 440 (0.49%) were called active. For the sample, actives were picked, then their nearest neighbours and some compounds at random.
value_type: inhibition (%)

> print(dat)
                                   compound  value.type  measured
1  COc1ccc(CCNC(=O)CSc2nc3[nH]ncc3c(=O)n2-c2cccc(C(F)(F)F)c2)cc1OC  inhibition     -1.55
2   CCCN(CCC)C(=S)Nc1cc(C(=O)OC)ccc1C(=O)OC  inhibition     -1.86
3  CSc1ccc(C=Nn2c(-c3ccc(F)cc3)n[nH]c2=S)cc1  inhibition     -3.89
4               Cc1nnsc1C(=O)Nc1cccc(Cl)c1C  inhibition      11.4
5          Cc1c(Cl)cccc1NC(=O)NCCCN1CCCC1=O  inhibition      5.26
6  COc1ccc(N2C(=O)CC(SC(C)C)C2=O)cc1 (stereo unspecified)  inhibition     -3.91
